- testSystem: T1, glucose-dependent insulinotropic peptide (gastric inhibitory polypeptide) receptor (GIPR), primary cAMP assay … (human, UniProt P48546 22-466)
- T1 sequence (looked up): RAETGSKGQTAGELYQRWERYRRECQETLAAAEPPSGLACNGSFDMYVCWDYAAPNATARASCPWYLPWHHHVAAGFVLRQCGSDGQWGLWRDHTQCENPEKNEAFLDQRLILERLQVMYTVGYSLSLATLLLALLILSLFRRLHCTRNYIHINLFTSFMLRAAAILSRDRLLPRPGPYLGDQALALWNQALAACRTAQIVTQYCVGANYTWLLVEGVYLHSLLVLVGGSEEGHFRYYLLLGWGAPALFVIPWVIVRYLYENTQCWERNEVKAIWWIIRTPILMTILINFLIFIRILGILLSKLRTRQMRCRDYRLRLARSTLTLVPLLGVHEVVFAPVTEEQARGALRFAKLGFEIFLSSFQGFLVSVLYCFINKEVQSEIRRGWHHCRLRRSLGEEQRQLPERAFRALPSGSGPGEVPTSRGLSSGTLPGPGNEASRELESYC
- assayRemarks: cell-based or functional assay
Starred links: 1 amine or outer side, 2 acyl side, 3 side chain; linkers in the order of their positions; H or OH if unused. Non-standard residues stand in square brackets, D forms with d. Groups on a side chain read outwards from the residue. Primed or numbered codes have the meaning given here. No end group written: not given here. *: point of attachment. γGlu = O=C(O)[C@H](CCC(=O)[*:2])N[*:1]; αMeF = C[C@](N)(Cc1ccccc1)C(=O)O; αMeK = C[C@](N)(CCCCN)C(=O)O; Lauroyl = CCCCCCCCCCCC(=O)*; αMeS = C[C@](N)(CO)C(=O)O; PEG2′ = not defined here; Aib = CC(C)(N)C(=O)O
propertyLabel: cAMP Primary assay EC50, n2 (nM)
Give your result in nM as a bare value.

Request: Any idea what cAMP Primary assay EC50, n2 was measured for H[Aib]EGS[αMeF]TSDVSK([PEG2′-PEG2′-γGlu-Lauroyl])YLEGK([PEG2′-PEG2′-γGlu-Lauroyl])AA[αMeK]EFIAFK([PEG2′-PEG2′-γGlu-Lauroyl])VEGG-NH2 [SEQ ID NO: 476] ?
Response: 19.8

Request: Any idea what cAMP Primary assay EC50, n2 was measured for H[Aib]EGS[αMeF]TSDV[αMeS]SK([PEG2′-PEG2′-γGlu-Lauroyl])LEK([PEG2′-PEG2′-γGlu-Lauroyl])EAA[αMeK]EFIAFK([PEG2′-PEG2′-γGlu-Lauroyl])VEGG-NH2 [SEQ ID NO: 479] ?
Response: 19.8

Request: Any idea what cAMP Primary assay EC50, n2 was measured for H[Aib]EGS[αMeF]TSDK([PEG2′-PEG2′-γGlu-Lauroyl])SSYLEGEK([PEG2′-PEG2′-γGlu-Lauroyl])A[αMeK]EFIAK([PEG2′-PEG2′-γGlu-Lauroyl])VVEGG-NH2 [SEQ ID NO: 457] ?
Response: 19.8

Request: Any idea what cAMP Primary assay EC50, n2 was measured for H[Aib]EGS[αMeF]TSDV[αMeS]SK([PEG2′-PEG2′-γGlu-Lauroyl])LEGK([PEG2′-PEG2′-γGlu-Lauroyl])AA[αMeK]EFIK([PEG2′-PEG2′-γGlu-Lauroyl])FVVEGG-NH2 [SEQ ID NO: 448] ?
Response: 19.9

Request: Any idea what cAMP Primary assay EC50, n2 was measured for H[Aib]EGS[αMeF]TSDVSK([PEG2′-PEG2′-γGlu-Lauroyl])YLEGEK([PEG2′-PEG2′-γGlu-Lauroyl])A[αMeK]EFIK([PEG2′-PEG2′-γGlu-Lauroyl])FVVEGG-NH2 [SEQ ID NO: 445] ?
Response: 19.5

Request: Any idea what cAMP Primary assay EC50, n2 was measured for H[Aib]EGS[αMeF]TSDV[αMeS]SYK([PEG2′-PEG2′-γGlu-Lauroyl])EGEK([PEG2′-PEG2′-γGlu-Lauroyl])A[αMeK]EFIAFK([PEG2′-PEG2′-γGlu-Lauroyl])VEGG-NH2 [SEQ ID NO: 485] ?
Response: 19.6

Request: Any idea what cAMP Primary assay EC50, n2 was measured for H[Aib]EGS[αMeF]TSDV[αMeS]SYK([PEG2′-PEG2′-γGlu-Lauroyl])EGEAA[αMeK]K([PEG2′-PEG2′-γGlu-Lauroyl])FIAFK([PEG2′-PEG2′-γGlu-Lauroyl])VEGG-NH2 [SEQ ID NO: 486] ?
Response: 19.9
